target: Recombinant human BRD4 containing dual bromodomains (BRD4-BD12 (1-477)) (Homo sapiens, UniProt O60885); construct: Recombinant human BRD4 containing dual bromodomains (BRD4-BD12 (1-477)); assay: BRD4 Alphascreen binding assay
pIC50: −log10 of the molar value.
ATTRIBUTE MEASURED: pIC50

Prompt: Need pIC50 of Cc1noc(C)c1-c1cnc2c(Cc3ccccc3Cl)cn(-c3c(Cl)cc(C(=O)O)cc3Cl)c2c1 , thanks.
Completion: 5.10 to 6.00

Prompt: Need pIC50 of Cc1noc(C)c1-c1cnc2c(CC3CC3)cn(-c3ccc(C(=O)O)cn3)c2c1 , thanks.
Completion: 3.00 to 5.10

Prompt: Need pIC50 of CCOc1cc(C(=O)O)c(F)cc1-c1cn([C@H]2CCOC2)c2ncc(-c3c(C)noc3C)cc12 , thanks.
Completion: 3.00 to 5.10

Prompt: Need pIC50 of COc1cc(C(=O)O)cc(OC)c1-c1cn([C@@H](C)c2ccccn2)c2ncc(-c3c(C)noc3C)cc12 , thanks.
Completion: 3.00 to 5.10

Prompt: Need pIC50 of Cc1noc(C)c1-c1cnc2c(c1)c(-c1c(Cl)cc(C(=O)O)cc1OC(F)(F)F)cn2[C@H]1CCOC1 , thanks.
Completion: 3.00 to 5.10

Prompt: Need pIC50 of Cc1noc(C)c1-c1cnc2c(c1)c(-c1cccc(C(=O)O)n1)cn2C(C)c1ccccn1 (stereo not drawn) , thanks.
Completion: 3.00 to 5.10

Prompt: Need pIC50 of CCCOc1cc(C(=O)O)cc(OCCC)c1-n1cc(CC2CCC2)c2ncc(-c3c(C)noc3C)cc21 , thanks.
Completion: 3.00 to 5.10

Prompt: Need pIC50 of CCOc1cc(C(=O)O)nc(OCC)c1-c1cn(-c2ncccc2C(N)=O)c2ncc(-c3c(C)noc3C)cc12 , thanks.
Completion: 3.00 to 5.10

Prompt: Need pIC50 of Cc1noc(C)c1-c1cnc2c(-c3ccccc3)cn(-c3cc(C(=O)O)ccc3OC(F)(F)F)c2c1 , thanks.
Completion: 5.10 to 6.00

Prompt: Need pIC50 of Cc1noc(C)c1-c1cnc2c(c1)c(-c1ccc(C(=O)O)cc1OC(F)(F)F)cn2-c1cnc(N(C)C)nc1 , thanks.
Completion: 5.10 to 6.00

Prompt: Need pIC50 of COC(=O)c1cc(-c2cn(C(c3ccccn3)C3CCC3)c3ncc(-c4c(C)noc4C)cc23)ccn1 (stereo not drawn) , thanks.
Completion: 3.00 to 5.10

Prompt: Need pIC50 of CCOc1cc(C(=O)O)ncc1-c1cn(C(C2CC2)C2CC2)c2ncc(-c3c(C)noc3C)cc12 , thanks.
Completion: 5.10 to 6.00

Prompt: Need pIC50 of Cc1noc(C)c1-c1cnc2c(c1)c(-c1ccc(C(=O)O)cc1OCC(F)F)cn2-c1cnc(N2CCC2)nc1 , thanks.
Completion: 3.00 to 5.10

Prompt: Need pIC50 of Cc1noc(C)c1-c1cnc2c(c1)c(C#CC(=O)O)cn2Cc1ccccc1 , thanks.
Completion: 3.00 to 5.10

Prompt: Need pIC50 of Cc1noc(C)c1-c1cnc2c(c1)c(-c1ccc(C(=O)O)cc1)cn2C(C)c1ncccn1 (stereo not drawn) , thanks.
Completion: 3.00 to 5.10

Prompt: Need pIC50 of CCOc1cc(C(=O)O)cc(OCC)c1-n1cc(-c2cnn(C3CC3)c2)c2ncc(-c3c(C)noc3C)cc21 , thanks.
Completion: 5.10 to 6.00

Prompt: Need pIC50 of Cc1noc(C)c1-c1cnc2c(c1)c(-c1ccc(C(=O)O)cc1OC(F)(F)F)cn2-c1cnn(C)c1 , thanks.
Completion: 6.00 to 10.00

Prompt: Need pIC50 of COc1cc(C(=O)O)cc(OCC2CC2)c1-c1cn([C@@H](C)c2ccccn2)c2ncc(-c3c(C)noc3C)cc12 , thanks.
Completion: 3.00 to 5.10

Prompt: Need pIC50 of Cc1noc(C)c1-c1cnc2c(c1)c(-c1ccncc1)cn2C(c1ccccn1)C1CCCC1 (stereo not drawn) , thanks.
Completion: 5.10 to 6.00

Prompt: Need pIC50 of Cc1noc(C)c1-c1cnc2c(-c3cc(C(=O)O)ccc3Cl)cn(C(C)(c3ccccn3)c3ccccn3)c2c1 , thanks.
Completion: 5.10 to 6.00

Prompt: Need pIC50 of Cc1noc(C)c1-c1cnc2c(c1)c(-c1c(Cl)cc(C(=O)O)cc1OC(F)(F)F)cn2C1CCOCC1 , thanks.
Completion: 5.10 to 6.00

Prompt: Need pIC50 of CCOc1cc(C(=O)O)cc(OCC)c1-n1cc(-c2cccnc2)c2ncc(-c3c(C)noc3C)cc21 , thanks.
Completion: 5.10 to 6.00

Prompt: Need pIC50 of COc1cc(C(=O)O)cc(OCc2ccccc2)c1-c1cn([C@@H](C)c2ccccn2)c2ncc(-c3c(C)noc3C)cc12 , thanks.
Completion: 3.00 to 5.10

Prompt: Need pIC50 of Cc1cc(-c2cn(C(c3ccccn3)C3CCCC3)c3ncc(-c4c(C)noc4C)cc23)ccc1C(=O)O (stereo not drawn) , thanks.
Completion: 5.10 to 6.00

Prompt: Need pIC50 of CCOc1cc(C(=O)O)nc(OCC)c1-c1cn(C2CCN(S(C)(=O)=O)CC2)c2ncc(-c3c(C)noc3C)cc12 , thanks.
Completion: 3.00 to 5.10

Prompt: Need pIC50 of Cc1noc(C)c1-c1cnc2c(c1)c(-c1ccc(C(=O)O)cc1OC(F)(F)F)cn2-c1ccc(C(C)(C)O)cc1 , thanks.
Completion: 6.00 to 10.00

Prompt: Need pIC50 of Cc1noc(C)c1-c1cnc2c(C(=O)c3cccc(OCc4ccccc4)c3)cn(-c3c(Cl)cc(C(=O)O)cc3Cl)c2c1 , thanks.
Completion: 5.10 to 6.00

Prompt: Need pIC50 of Cc1noc(C)c1-c1cnc2c(c1)c(-c1c(Cl)cc(C(=O)O)cc1OC(C)C)cn2-c1cnc(C2CC2)nc1 , thanks.
Completion: 5.10 to 6.00

Prompt: Need pIC50 of Cc1noc(C)c1-c1cnc2c(CC3CCC3)cn(-c3ccc(C(=O)O)cc3OC(F)(F)F)c2c1 , thanks.
Completion: 3.00 to 5.10

Prompt: Need pIC50 of Cc1noc(C)c1-c1cnc2c(c1)c(-c1ccc(C(=O)O)cc1OC1CCC1)cn2C1CCOCC1 , thanks.
Completion: 3.00 to 5.10

###

target: Recombinant human EP300 containing the bromodomain (EP300-BD (1040-1161)) (Homo sapiens, UniProt Q09472); construct: Recombinant human EP300 bromodomain (EP300-BD (1040-1161)); assay: EP300 Alphascreen binding assay
Sequence (Q09472 1040-1161): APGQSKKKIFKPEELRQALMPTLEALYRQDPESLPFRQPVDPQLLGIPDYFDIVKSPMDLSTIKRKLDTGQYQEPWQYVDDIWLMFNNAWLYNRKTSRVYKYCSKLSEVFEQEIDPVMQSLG
Provide the recorded IC50 for the entries that follow.

Prompt: Need IC50 of Cc1noc(C)c1-c1cnc2c(c1)c(-c1cccc(C(=O)NC#N)c1)cn2Cc1ccccc1 , thanks.
Completion: 0.1 to 1000 nM

Prompt: Need IC50 of Cc1noc(C)c1-c1cnc2c(Cc3cccc(OC(F)F)c3)cn(-c3ccnc(C(=O)O)c3)c2c1 , thanks.
Completion: 0.1 to 1000 nM

Prompt: Need IC50 of Cc1cc(-c2c(C(F)(F)F)n([C@@H](C)c3ccccn3)c3cc(-c4c(C)noc4C)cnc23)ccc1C(=O)O , thanks.
Completion: 1000 to 8000 nM

Prompt: Need IC50 of CCOc1cc(C(=O)O)cc(OCC)c1-n1cc(-c2cnn(C3CC3)c2)c2ncc(-c3c(C)noc3C)cc21 , thanks.
Completion: 0.1 to 1000 nM

Prompt: Need IC50 of Cc1nn(C(F)F)cc1-n1cc(-c2ccc(C(=O)O)cc2OC(F)(F)F)c2cc(-c3c(C)noc3C)cnc21 , thanks.
Completion: 0.1 to 1000 nM

Prompt: Need IC50 of Cc1noc(C)c1-c1cnc2c(c1)c(-c1ccc(C(=O)O)cc1OC(F)(F)F)cn2C1(C)CCOCC1 , thanks.
Completion: 0.1 to 1000 nM

Prompt: Need IC50 of Cc1noc(C)c1-c1cnc2c(c1)c(-c1ccc(C(=O)O)cc1)cn2[C@@H](C)c1ccccn1 , thanks.
Completion: 0.1 to 1000 nM

###

target: Recombinant human BRD4 containing dual bromodomains (BRD4-BD12 (1-477)) (Homo sapiens); construct: Recombinant human BRD4 containing dual bromodomains (BRD4-BD12 (1-477)); assay: BRD4 Alphascreen binding assay
Provide the recorded IC50 for the entries that follow.

Prompt: Need IC50 of Cc1nn(C(F)F)cc1-n1cc(-c2ccc(C(=O)O)cc2OC(F)(F)F)c2cc(-c3c(C)noc3C)cnc21 [P-0288] , thanks.
Completion: 1 to 8 µM

Prompt: Need IC50 of Cc1noc(C)c1-c1cnc2c(c1)c(-c1c(Cl)cc(C(=O)O)cc1OC1CCC1)cn2-c1cnc(C2CC2)nc1 [P-0391] , thanks.
Completion: 1 to 8 µM

Prompt: Need IC50 of CCOc1cc(C(=O)O)nc(OCC)c1-c1cn(-c2ccccc2F)c2ncc(-c3c(C)noc3C)cc12 [P-0414] , thanks.
Completion: 1 to 8 µM

Prompt: Need IC50 of Cc1noc(C)c1-c1cnc2c(C(=O)c3ccccc3Cl)cn(-c3ccnc(C(=O)O)c3)c2c1 [P-0089] , thanks.
Completion: 1 to 8 µM

Prompt: Need IC50 of COC(=O)c1cc(Cl)c(-c2cn(-c3ccc(C4CC4)nc3)c3ncc(-c4c(C)noc4C)cc23)c(OC(F)(F)F)c1 [P-0440] , thanks.
Completion: 8 to 1000 µM

Prompt: Need IC50 of CCOc1cc(C(=O)O)nc(OCC)c1-c1cn([C@@H](C)c2ccccn2)c2ncc(-c3c(C)noc3C)cc12 [P-0415] , thanks.
Completion: 8 to 1000 µM

Prompt: Need IC50 of CCOc1cc(C(=O)O)cc(OCC)c1-n1cc(-c2cn(C)nc2C)c2ncc(-c3c(C)noc3C)cc21 [P-0263] , thanks.
Completion: 1 to 8 µM

Prompt: Need IC50 of CCOc1cc(C(=O)O)cc(OCC)c1-n1cc(CC2CCC2)c2ncc(-n3c(C)nnc3C)cc21 [P-0270] , thanks.
Completion: 8 to 1000 µM

Prompt: Need IC50 of CCOc1cc(C(=O)O)nc(OCC)c1-c1cn(C(C2CC2)C2CC2)c2ncc(-c3c(C)noc3C)cc12 [P-0420] , thanks.
Completion: 8 to 1000 µM

Prompt: Need IC50 of Cc1noc(C)c1-c1cnc2c(c1)c(-c1ccc(C(=O)O)cc1OC1CCC1)cn2[C@@H](C)c1ccccn1 [P-0179] , thanks.
Completion: 8 to 1000 µM

Prompt: Need IC50 of Cc1noc(C)c1-c1cnc2c(c1)c(-c1ccc(C(=O)O)cc1OC1CCC1)cn2-c1ccccc1 [P-0276] , thanks.
Completion: 1 to 8 µM

Prompt: Need IC50 of Cc1noc(C)c1-c1cnc2c(c1)c(-c1ccc(C(=O)O)cc1OC(F)(F)F)cn2-c1ccccc1 [P-0188] , thanks.
Completion: 1 to 8 µM

Prompt: Need IC50 of Cc1noc(C)c1-c1cnc2c(c1)c(-c1ccc(C(=O)O)cc1OC(C)C)cn2C1(C)CCOCC1 [P-0403] , thanks.
Completion: 8 to 1000 µM

Prompt: Need IC50 of Cc1noc(C)c1-c1cnc2c(c1)c(-c1ccc(C(F)(F)C(=O)O)cc1)cn2C(c1ccccn1)C1CCCC1 (stereo not drawn) [P-0034] , thanks.
Completion: 1 to 8 µM

Prompt: Need IC50 of CCOc1cc(C(=O)O)nc(OCC)c1-n1cc(-c2ccc(F)cc2F)c2ncc(-c3c(C)noc3C)cc21 [P-0431] , thanks.
Completion: 1 to 8 µM

Reference for the values: patent US11446287B2
